The values you see were collected from PubChem BioAssay (NCI).

System: A549/ATCC NSCLC
experiment: NCI-60 one-dose screen, 48 h (100 = growth as untreated, 0 = no growth, -100 = all killed)
test-settings: 10 µM unless noted
This is part of a sample that, as a whole, favours compounds with a hit. Of some 83,000 tested, about 20% had one in any assay.
Ranges used to classify growth: LOW (below 60%), MID (60% to below 90%), HIGH (90% or more)

COc1ccc(COc2ccc(/C=C3\C(=O)Nc4ccccc43)cc2OC)cc1 ... HIGH
NC(=O)c1cccc(-n2ccc3cc(NC(=O)Nc4ccc(N5CCOCC5)c(C(F)(F)F)c4)ccc32)n1 ... LOW
CCc1cccc2c3c(sc12)C(c1ccc(OC)cc1)C(C#N)=C(/N=C/c1ccc(Cl)cc1)O3 (centres undefined) ... LOW
N#Cc1cn(Cc2ccc(Cl)cc2Cl)c(C(=O)c2ccc(Br)cc2)c1N ... HIGH
NC(N)=Nc1ccc(Oc2cccc(NC(N)=Nc3ccc(I)cc3F)c2)cn1 ... LOW

Attention now turns to another entry.
Textbook exercise: identify the category of the molecule given here, CNC(=O)c1cc(Oc2ccc3nc(NC(=O)c4ccc(N5CCOCC5)c(C(F)(F)F)c4)sc3c2)ccn1 , according to its measured value.
MID
